Measured koff of individual entries
study_system: T1, AAV5 (adeno-associated virus serotype 5)
T1 construct: also called adeno-associated virus serotype 5
method_notes: SPR, AAV on CM5 chip;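 note: surface plasmon resonance with AAV amine-coupled to the chip as ligand, nanobodies injected as analyte over a concentration series, rate constants and affinity fitted from binding curves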
Express the reported value numerically, then name its unit.

Here are 3 binders together with their reported answers.
INSERT INTO measurements (binder, value_kind, measured_result) VALUES
  ('A4-112 (VHH) VHH: VQLQESGGGLVQTGGSLRLSCIASGSIFSINTVGWYRQAPPKQRELVATVTRAGSTWYAGSVKGRFTISRDNAKNTIYLQMNTLRPEDTAVYYCHVDEVRQSTWTTSNIWGQGTQVTVSS', 'koff', '0.00412 s⁻¹'),
  ('A4-107 (VHH) VHH: VQLQESGGGLVQPGGSLRLSCIASGSGFSINTVGWYRQAPAKQRELVATLTRGGSTNYADSVKGRFTISRDNPKNTVYLQMNSLRPEDTAVYYCHVDEVRQSSWTTSNIWGQGTQVTVSS', 'koff', '0.00353 s⁻¹'),
  ('A4-101 (VHH) VHH: VQLQESGGGLVQPGGSLRLSCAASGSRFSINIMGWYRQAPGKQRELVASVTRGGTTNYADSVKGRFTISRDNPKNTIYLQMNSLRPEDTAVYYCHVDEIRESTWTTSNLWGQGTQVTVSS', 'koff', '0.00034 s⁻¹');

input: Which koff is listed for A4-104 (VHH) VHH: VQLQESGGGLVQPGGSLRLSCAASGSIFSLNSMGWYRQAPGKQRELVATITSGGSTNYAGSVKGRFTISRDNAKNTVYLQMNNLQPEDTAVYYCHVDEVRESSWTTSNLWGQGTQVTVSS ?
output: 0.00037 s⁻¹
